Target: CYP2E1 (Homo sapiens, UniProt P05181)
Sequence (P05181 whole entry): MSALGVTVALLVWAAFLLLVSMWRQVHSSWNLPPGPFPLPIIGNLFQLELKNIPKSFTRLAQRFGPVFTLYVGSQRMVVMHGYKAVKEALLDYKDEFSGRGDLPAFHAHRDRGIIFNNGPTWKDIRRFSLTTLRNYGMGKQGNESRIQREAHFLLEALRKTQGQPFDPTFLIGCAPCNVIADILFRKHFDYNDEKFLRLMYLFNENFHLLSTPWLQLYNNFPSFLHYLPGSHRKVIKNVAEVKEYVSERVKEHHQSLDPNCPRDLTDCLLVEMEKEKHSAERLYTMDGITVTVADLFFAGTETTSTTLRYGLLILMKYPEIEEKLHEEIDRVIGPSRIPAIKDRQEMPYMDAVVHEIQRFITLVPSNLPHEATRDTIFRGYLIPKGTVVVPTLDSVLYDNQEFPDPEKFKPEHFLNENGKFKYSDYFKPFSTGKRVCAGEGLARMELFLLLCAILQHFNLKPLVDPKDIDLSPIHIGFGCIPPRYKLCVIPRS
Assay: in vitro
Settings: pH 7.4
Task for the reader: assign each of the following compounds its reported inhibition at 40 min, 33 µM.
Numeric answer plus unit only.

O=C(CCc1ccc(O)cc1)c1c(O)cc(O)cc1O[C@@H]1O[C@H](CO)[C@@H](O)[C@H](O)[C@H]1O yielded inhibition at 40 min, 33 µM of 3.76%

O=C(O)c1ccc(O)c(O)c1 yielded inhibition at 40 min, 33 µM of 19.9%

O=c1c(-c2ccc(O)cc2)coc2c([C@@H]3O[C@H](CO)[C@@H](O)[C@H](O)[C@H]3O)c(O)ccc12 yielded inhibition at 40 min, 33 µM of -4.64%

O=c1c(O)c(-c2ccc(O)cc2)oc2cc(O)cc(O)c12 yielded inhibition at 40 min, 33 µM of 70%

O=C(O)/C=C/c1ccccc1 [trans-Cinnamic acid] yielded inhibition at 40 min, 33 µM of 4.66%

O=C(O)c1cc(O)c(O)c(O)c1 yielded inhibition at 40 min, 33 µM of 42.7%

COc1ccc([C@@H]2CC(=O)c3c(O)cc(O)cc3O2)cc1O yielded inhibition at 40 min, 33 µM of 43.3%

O=C(CCc1ccc(O)cc1)c1c(O)cc(O)cc1O yielded inhibition at 40 min, 33 µM of 54.7%

O=C1C[C@@H](c2ccc(O)cc2)Oc2cc(O)cc(O)c21 yielded inhibition at 40 min, 33 µM of 36.8%

CC(Cc1ccc(O)c(O)c1)C(C)Cc1ccc(O)c(O)c1 (centres unmarked) [Nordihydroguaiaretic acid] yielded inhibition at 40 min, 33 µM of 92.4%

CCCCCCCCCCCC1=C(O)C(=O)C=C(O)C1=O yielded inhibition at 40 min, 33 µM of 12.3%
